experiment: Drug uptake in Sprague-Dawley rat spleen at 20 mg/kg, ip measured after 24 hrs by LC-MS/MS analysis; format: ADME, organism-based; conditions: read-out: Drug uptake
property-label: concentration at 24 h (nM)

1. CC(C)Cc1nn(C)c(=O)c2c(SCCCO)n(Cc3ccc(C#CCCCOc4ccc(C[C@H](N)C(=O)O)cc4)c4ccccc34)cc12 ... 1060
2. CC(C)Cc1nn(C)c(=O)c2c(SCCCO)n(Cc3cccc4ccccc34)cc12 ... 420

----------
assay: Drug uptake in Sprague-Dawley rat spleen at 20 mg/kg, ip measured after 6 hrs by LC-MS/MS analysis; assay type: ADME, organism-based; conditions: read-out: Drug uptake
property-label: concentration at 6 h

1) CC(C)Cc1nn(C)c(=O)c2c(SCCCO)n(Cc3ccc(C#CCCCOc4ccc(C[C@H](N)C(=O)O)cc4)c4ccccc34)cc12 ... 2260 nM
2) CC(C)Cc1nn(C)c(=O)c2c(SCCCO)n(Cc3cccc4ccccc34)cc12 ... 740 nM

----------
test: Drug uptake in Sprague-Dawley rat lung at 20 mg/kg, ip measured after 6 hrs by LC-MS/MS analysis; type: ADME, organism-based; details: read-out: Drug uptake
property-label: concentration at 6 h (µM)

1. CC(C)Cc1nn(C)c(=O)c2c(SCCCO)n(Cc3ccc(C#CCCCOc4ccc(C[C@H](N)C(=O)O)cc4)c4ccccc34)cc12 ... 1.54
2. CC(C)Cc1nn(C)c(=O)c2c(SCCCO)n(Cc3cccc4ccccc34)cc12 ... 0.061

----------
assay: Drug uptake in Sprague-Dawley rat liver at 20 mg/kg, ip measured after 7 days by LC-MS/MS analysis; assay type: ADME, organism-based; conditions: read-out: Drug uptake
property-label: concentration at 168 h (nM)

1. CC(C)Cc1nn(C)c(=O)c2c(SCCCO)n(Cc3ccc(C#CCCCOc4ccc(C[C@H](N)C(=O)O)cc4)c4ccccc34)cc12 ... 98

----------
experiment: Drug uptake in NOD/SCID mouse tumor measured after 24 hrs; type: ADME, Neoplasm; details: read-out: Drug uptake
property-label: concentration at 24 h (nM)

1) CC(C)Cc1nn(C)c(=O)c2c(SCCCO)n(Cc3ccc(C#CCCCOc4ccc(C[C@H](N)C(=O)O)cc4)c4ccccc34)cc12 ... 300

----------
test: Drug uptake in Sprague-Dawley rat brain at 20 mg/kg, ip measured after 7 days by LC-MS/MS analysis; type: ADME, organism-based; details: read-out: Drug uptake
property-label: concentration at 168 h (nM)

1. CC(C)Cc1nn(C)c(=O)c2c(SCCCO)n(Cc3ccc(C#CCCCOc4ccc(C[C@H](N)C(=O)O)cc4)c4ccccc34)cc12 ... 43

----------
experiment: Drug uptake in Sprague-Dawley rat kidney at 20 mg/kg, ip measured after 24 hrs by LC-MS/MS analysis; assay type: ADME, organism-based; details: read-out: Drug uptake
property-label: concentration at 24 h (µM)

1. CC(C)Cc1nn(C)c(=O)c2c(SCCCO)n(Cc3cccc4ccccc34)cc12 ... 0.16
2. CC(C)Cc1nn(C)c(=O)c2c(SCCCO)n(Cc3ccc(C#CCCCOc4ccc(C[C@H](N)C(=O)O)cc4)c4ccccc34)cc12 ... 0.96

----------
test: Drug uptake in Sprague-Dawley rat kidney at 20 mg/kg, ip measured after 7 days by LC-MS/MS analysis; format: ADME, organism-based; details: read-out: Drug uptake
property-label: concentration at 168 h

1. CC(C)Cc1nn(C)c(=O)c2c(SCCCO)n(Cc3ccc(C#CCCCOc4ccc(C[C@H](N)C(=O)O)cc4)c4ccccc34)cc12 ... 210 nM
